biological target: protein farnesyltransferase (Rattus norvegicus, UniProt Q02293+Q04631); construct: Rat brain protein farnesyltransferase activity is measured; from tissue; host or cells: rat brain; purified according to Reiss et al., Cell 62:81-88 (1990), steps one through three; assay: in vitro inhibition of protein farnesyltransferase (scintillation proximity assay, biotin-K Ras B fragment); format: biochemical; settings: at 1 × 10^-7 M
# binarize % inhibition of farnesyltransferase: threshold 90% inclusive, high side True, low side False

Qu. Answer whether % inhibition of farnesyltransferase of CSCC[C@H](NC(=O)c1ccc(COCc2cnc(-c3cccc(Cl)c3)o2)cc1-c1ccccc1C)C(=O)[O-].[Li+] [Example 893] is greater than or equal to 90%.
Ans. False

Qu. Answer whether % inhibition of farnesyltransferase of CSCC[C@H](NC(=O)c1ccc(COCC2CCC(c3ccc(Cl)cc3)O2)cc1-c1ccccc1C)C(=O)O (stereo partly shown) [Example 822] is greater than or equal to 90%.
Ans. True

Qu. Answer whether % inhibition of farnesyltransferase of CCCCC(OCc1ccc(C(=O)N[C@@H](CCSC)C(=O)[O-])c(-c2ccccc2C)c1)c1ccco1.[Li+] (stereo partly shown) [Example 825] is greater than or equal to 90%.
Ans. False

Qu. Answer whether % inhibition of farnesyltransferase of CSCC[C@H](NC(=O)c1ccc(CSc2nc(C)cc(C)n2)cc1-c1ccccc1C)C(=O)O [Example 743] is greater than or equal to 90%.
Ans. False

Qu. Answer whether % inhibition of farnesyltransferase of CSCC[C@H](NC(=O)c1ccc(CSc2nnc(N)s2)cc1-c1ccccc1C)C(=O)O [Example 734] is greater than or equal to 90%.
Ans. False

Qu. Answer whether % inhibition of farnesyltransferase of CSCC[C@H](NC(=O)c1ccc(COC(Cc2ccccc2)Cc2ccccc2)cc1-c1ccccc1C)C(=O)[O-].[Li+] [Example 522] is greater than or equal to 90%.
Ans. True

----------
Exercise: for every item that follows, state its recorded inhibition at 1 µM.
target: protein farnesyltransferase (Rattus norvegicus, UniProt Q02293+Q04631); construct: Rat brain protein farnesyltransferase activity is measured; from tissue; host or cells: rat brain; purified according to Reiss et al., Cell 62:81-88 (1990), steps one through three; test: in vitro inhibition of protein farnesyltransferase (scintillation proximity assay, biotin-K Ras B fragment); type: biochemical; conditions: at 1 × 10^-6 M; read-out: % inhibition of farnesyltransferase
Counter-ions that a name gives are not always drawn.
Express it in %; write the number only.

Qu. Entry CSCC[C@H](NC(=O)c1ccc(CNCC(O)CO)cc1-c1ccccc1)C(=O)O (stereo partly shown) : reported inhibition at 1 µM = ?
Ans. 43

Qu. Entry CSCC[C@H](NC(=O)c1ccc(CN(CCO)Cc2ccccc2)cc1-c1ccccc1)C(=O)O [Example 515, lithium salt] : reported inhibition at 1 µM = ?
Ans. 72

Qu. Entry CSCC[C@H](NC(=O)c1ccc(CN(Cc2ccccc2)c2ccccc2Cl)cc1-c1ccccc1C)C(=O)O [Example 846, lithium salt] : reported inhibition at 1 µM = ?
Ans. 85

Qu. Entry COc1ccc(CC(=O)Nc2ccc(C(=O)N[C@@H](CCSC)C(=O)O)c(-c3ccccc3C)c2)cc1 [Example 542, lithium salt] : reported inhibition at 1 µM = ?
Ans. 67

Qu. Entry CSCC[C@H](NC(=O)c1ccc(CN(CCc2ccccc2)c2ccccc2)cc1-c1ccccc1C)C(=O)O : reported inhibition at 1 µM = ?
Ans. 96

Qu. Entry COc1ccccc1CNCc1ccc(C(=O)N[C@@H](CCSC)C(=O)O)c(-c2ccccc2)c1 : reported inhibition at 1 µM = ?
Ans. 68

Qu. Entry CSCC[C@H](NC(=O)c1ccc(CNc2ccccc2N2CCCCC2)cc1-c1ccccc1)C(=O)O : reported inhibition at 1 µM = ?
Ans. 59
